Ref: patent USRE48461E1

# Tested on: TMPRSS2 mRNA
# Experiment notes: TMPRSS2 mRNA levels in LMR20 cells
# Assay type: cell-based, human
# Run conditions: LMR20 cells, R1881 10 nM 72 hrs, ASO 1.0 μM
Oligonucleotides are written 5' to 3', each unit as a sugar letter and its base; * is a phosphorothioate linkage, no mark a phosphodiester; rarer units and linkages stand in square brackets, end groups in braces. Plain capitals give the bases only. e = 2'-O-(2-methoxyethyl) (MOE); l = locked nucleic acid (LNA); k = constrained ethyl (cEt); [5mC] = 5-methylcytosine; d = 2'-deoxy (DNA)
Metric name: TMPRSS2 mRNA levels (% baseline value) after treatment with R1881

INSERT INTO assay_data (substance, assay_target, assay_result) VALUES
  ('549458 (kG*kT*kT*dG*dA*dT*dT*dT*dA*dA*dT*dG*dG*kT*kT*kG) [compound 549458]', 'TMPRSS2 mRNA', 96),
  ('560131 (antisense kT*kT*kG*dA*dT*dT*dT*dA*dA*dT*dG*dG*kT*kT*kG*e[5mC]) [compound 560131]', 'TMPRSS2 mRNA', 88),
  ('554221 (ACCAAGTTTCTTCAGC; sugars from the 5'' end l3 d10 l3, all phosphorothioate, methylation of C not given here) [compound 554221]', 'TMPRSS2 mRNA', 125);

###

# System: AR mRNA
# Experiment notes: Dose-dependent antisense inhibition of human AR in HuVEC cells (electroporation, qRT-PCR RTS3559, IC50)
# Type: cell-based
# Run conditions: 1500.0 nM; HuVEC, ~16 h; Table 3
Oligonucleotides are written 5' to 3', each unit as a sugar letter and its base; * is a phosphorothioate linkage, no mark a phosphodiester; rarer units and linkages stand in square brackets, end groups in braces. Plain capitals give the bases only. k = constrained ethyl (cEt); [5mC] = 5-methylcytosine; d = 2'-deoxy (DNA)
We begin with a simple list: items and their reported percent inhibition of AR.
Metric name: percent inhibition of AR (%)

INSERT INTO results (substance, metric_name, assay_result) VALUES
  ('549371 (kG*kT*kT*dG*dT*dA*dG*dT*dA*dG*dT*d[5mC]*dG*k[5mC]*kG*kA; antisense) [compound 549371]', 'percent inhibition of AR', 88),
  ('549383 (k[5mC]*k[5mC]*kA*dA*dA*d[5mC]*dG*d[5mC]*dA*dT*dG*dT*d[5mC]*k[5mC]*k[5mC]*k[5mC]; antisense) [compound 549383]', 'percent inhibition of AR', 88),
  ('549381 (kG*k[5mC]*k[5mC]*dG*d[5mC]*d[5mC]*dA*dG*dG*dG*dT*dA*d[5mC]*k[5mC]*kA*k[5mC]; antisense) [compound 549381]', 'percent inhibition of AR', 91);

###

This listing pairs substances with measured percent inhibition of AR.
# Test system: AR mRNA
# Experiment notes: Dose-dependent antisense inhibition of human AR in HuVEC cells (electroporation, qRT-PCR RTS3559, IC50)
# Type: cell-based
# Run conditions: 166.7 nM; HuVEC, ~16 h; Table 3
# Experimental: After a treatment period of approximately 16 hours, RNA was isolated from the cells and AR mRNA levels were measured by quantitative real-time PCR. Human AR primer probe set RTS3559 was used to measure mRNA levels. AR mRNA levels were adjusted according to total RNA content, as measured by RIBOGREEN®. […] After a treatment period of approximately 16 hours, RNA was isolated from the cells and AR mRNA levels were measured by quantitative real-time PCR. […]
Oligonucleotides are written 5' to 3', each unit as a sugar letter and its base; * is a phosphorothioate linkage, no mark a phosphodiester; rarer units and linkages stand in square brackets, end groups in braces. Plain capitals give the bases only. k = constrained ethyl (cEt); [5mC] = 5-methylcytosine; d = 2'-deoxy (DNA)
Metric name: percent inhibition of AR (%)

INSERT INTO measurements (substance, metric_name, assay_result) VALUES
  ('549371 (kG*kT*kT*dG*dT*dA*dG*dT*dA*dG*dT*d[5mC]*dG*k[5mC]*kG*kA; antisense) [compound 549371]', 'percent inhibition of AR', 52),
  ('549381 (kG*k[5mC]*k[5mC]*dG*d[5mC]*d[5mC]*dA*dG*dG*dG*dT*dA*d[5mC]*k[5mC]*kA*k[5mC]; antisense) [compound 549381]', 'percent inhibition of AR', 33),
  ('549358 (kA*kT*kG*dG*dT*dG*d[5mC]*dT*dG*dG*d[5mC]*d[5mC]*dT*k[5mC]*kG*k[5mC]; antisense) [compound 549358]', 'percent inhibition of AR', 63),
  ('549361 (kG*kA*k[5mC]*dA*d[5mC]*d[5mC]*dG*dA*d[5mC]*dA*d[5mC]*dT*dG*k[5mC]*k[5mC]*kT; antisense) [compound 549361]', 'percent inhibition of AR', 30),
  ('549372 (kA*kA*kG*dT*dT*dG*dT*dA*dG*dT*dA*dG*dT*k[5mC]*kG*k[5mC]) [compound 549372]', 'percent inhibition of AR', 51),
  ('549383 (k[5mC]*k[5mC]*kA*dA*dA*d[5mC]*dG*d[5mC]*dA*dT*dG*dT*d[5mC]*k[5mC]*k[5mC]*k[5mC]; antisense) [compound 549383]', 'percent inhibition of AR', 34);
